What percent inhibition of viability was measured for each of the following?
System: normal primary NK cells, pool 1 (3 donors) (IL-2 2.5 ng/mL)
Experiment: percent inhibition of viability; higher = more inhibition
Conditions: 72 h; 10 nM
One number for each entry, in %.

[
  {
    "compound": "NC(=O)Nc1cc(-c2cccc(F)c2)sc1C(=O)N[C@H]1CCCNC1 [AZD7762] (max concentration tested 1000 nM)",
    "tested.target": "normal primary NK cells, pool 1 (3 donors) (IL-2 2.5 ng/mL)",
    "endpoint.name": "percent inhibition of viability",
    "numeric.value": 4.94
  },
  {
    "compound": "Cc1csc(-c2nnc(Nc3ccc(Oc4ncccc4-c4ccnc(N)n4)cc3)c3ccccc23)c1 [AMG-900] (max concentration tested 1000 nM)",
    "tested.target": "normal primary NK cells, pool 1 (3 donors) (IL-2 2.5 ng/mL)",
    "endpoint.name": "percent inhibition of viability",
    "numeric.value": -4.93
  },
  {
    "compound": "CN[C@@H](C)C(=O)N[C@H]1CN(C(=O)CC(C)C)CC[C@H]2CC[C@@H](C(=O)NC(c3ccccc3)c3ccccc3)N2C1=O [AT-406] (max concentration tested 10000 nM)",
    "tested.target": "normal primary NK cells, pool 1 (3 donors) (IL-2 2.5 ng/mL)",
    "endpoint.name": "percent inhibition of viability",
    "numeric.value": 1.28
  }
]

Would you mind listing percent inhibition of viability for each of the following compounds?
1. C=C(c1ccc(C(=O)O)cc1)c1cc2c(cc1C)C(C)(C)CCC2(C)C [Bexarotene] (max concentration tested 10000 nM)
2. CCN(CC)CCOc1ccc(C(=C(Cl)c2ccccc2)c2ccccc2)cc1 [Clomifene] (max concentration tested 10000 nM)
3. Cn1ncnc1[C@H]1c2n[nH]c(=O)c3cc(F)cc(c23)N[C@@H]1c1ccc(F)cc1 [Talazoparib] (max concentration tested 1000 nM)
4. Nc1nc(Nc2ccc3c(c2)CC[C@@H](N2CCCC2)CC3)nn1-c1cc2c(nn1)-c1ccccc1CCC2 [BGB324] (max concentration tested 10000 nM)

1: 3.77; 2: -1.65; 3: 4.49; 4: -4.6

Would you mind listing percent inhibition of viability for each of the following compounds?
1. Cc1ccc(-n2nc(C(C)(C)C)cc2NC(=O)Nc2ccc(OCCN3CCOCC3)c3ccccc23)cc1 [Doramapimod] (max concentration tested 10000 nM)
2. COC(=O)N[C@@H](C)CNc1nccc(-c2cn(C(C)C)nc2-c2cc(Cl)cc(NS(C)(=O)=O)c2F)n1 [Encorafenib] (max concentration tested 1000 nM)
3. Cc1cc2c(F)c(Oc3ncnn4cc(OC[C@@H](C)O)c(C)c34)ccc2[nH]1 [Brivanib] (max concentration tested 1000 nM)
4. O=P1(NCCCl)OCCCN1CCCl (stereo not drawn) [Ifosfamide] (max concentration tested 10000 nM)
5. C=CCn1c(=O)c2cnc(Nc3ccc(N4CCN(C)CC4)cc3)nc2n1-c1cccc(C(C)(C)O)n1 [MK1775] (max concentration tested 10000 nM)
6. CC[C@H](C)C(=O)O[C@H]1C[C@@H](C)C=C2C=C[C@H](C)[C@H](CC[C@@H]3C[C@@H](O)CC(=O)O3)[C@H]21 [Lovastatin] (max concentration tested 10000 nM)
7. Cn1c(=O)n(-c2ccc(C(C)(C)C#N)cc2)c2c3cc(-c4cnc5ccccc5c4)ccc3ncc21 [Dactolisib] (max concentration tested 1000 nM)
8. Cc1cc(Nc2nc(N[C@@H](C)c3ncc(F)cn3)ncc2Cl)[nH]n1 [AZD1480] (max concentration tested 1000 nM)

-0.9
-7.94
4.52
-7.35
-12.2
-11.9
21.4
7.91

Would you mind listing percent inhibition of viability for each of the following compounds?
1. CC(C)[C@H](C(=O)Nc1ccc(C(=O)NO)cc1)c1ccccc1 [AR-42] (max concentration tested 10000 nM)
2. Cc1ccc(Nc2nccc(N(C)c3ccc4c(C)n(C)nc4c3)n2)cc1S(N)(=O)=O [Pazopanib] (max concentration tested 10000 nM)
3. Clc1ccc(Nc2nnc(Cc3ccncc3)c3ccccc23)cc1 [Vatalanib] (max concentration tested 10000 nM)
4. CCCc1cc(C)[nH]c(=O)c1CNC(=O)c1cc(-c2ccnc(N3CCN(C)CC3)c2)cc2c1cnn2C(C)C [GSK343] (max concentration tested 10000 nM)
5. CCCCCCCCc1ccc(CCC(N)(CO)CO)cc1 [Fingolimod] (max concentration tested 10000 nM)
6. O=C1NC(=O)[C@@H](c2cn3c4c(cccc24)CCC3)[C@@H]1c1c[nH]c2ccccc12 [Tivantinib] (max concentration tested 1000 nM)
7. CCC(C)(C)C(=O)O[C@H]1C[C@@H](C)C=C2C=C[C@H](C)[C@H](CC[C@@H]3C[C@@H](O)CC(=O)O3)[C@H]21 [Simvastatin] (max concentration tested 10000 nM)

1. 6.41
2. 2.19
3. -14.2
4. -6.04
5. -3.03
6. -7.52
7. 9.33

So what's the measured percent inhibition of viability for this one? CO[C@@H](C(=O)N1Cc2[nH]nc(NC(=O)c3ccc(N4CCN(C)CC4)cc3)c2C1)c1ccccc1 [Danusertib] (max concentration tested 10000 nM)
14.4

----------
Tested on: NK-92 (IL-2 2.5 ng/mL)
Assay: percent inhibition of viability; higher = more inhibition
Conditions: 72 h; 25 nM
endpoint.name: percent inhibition of viability (%)
Numbers only, in %.

Worked examples, 3 compounds total:
[
  {
    "compound": "COc1ccc2c(OCc3nnc4ccc(-c5ccccc5)nn34)ccnc2c1 [AMG-208] (max concentration tested 2500 nM)",
    "units.of.measure": "%",
    "numeric.value": -6.65
  },
  {
    "compound": "C[C@@H]1CN(CC(=O)Nc2ccc3c(c2)Cc2cccc(-c4cc(=O)cc(N5CCOCC5)o4)c2S3)C[C@H](C)O1 (max concentration tested 25000 nM)",
    "units.of.measure": "%",
    "numeric.value": -15.1
  },
  {
    "compound": "CC(C)Cn1cnc2c(N)nc3ccccc3c21 [Imiquimod] (max concentration tested 2500 nM)",
    "units.of.measure": "%",
    "numeric.value": -5.41
  }
]

So what's the measured percent inhibition of viability for this one? COc1ccc(Cl)c(Nc2nc3ccccc3nc2NS(=O)(=O)c2cccc(NC(=O)C(C)(C)N)c2)c1 [Pilaralisib] (max concentration tested 2500 nM)
3.1

----------
What percent inhibition of viability was measured for each of the following?
Tested on: normal NK cells expanded with K562-aAPC
Test: percent inhibition of viability; higher = more inhibition
Conditions: 72 h; IL-2 2.5 ng/mL; 1 nM
Answers are plain numbers, in %.

[
  {
    "compound": "Cc1c(CN2CCN(C(=O)[C@H](C)O)CC2)sc2c(N3CCOCC3)nc(-c3cnc(N)nc3)nc12 [Apitolisib] (max concentration tested 10000 nM)",
    "numeric.value": 2.46
  },
  {
    "compound": "COC(=O)N[C@@H](C)CNc1nccc(-c2cn(C(C)C)nc2-c2cc(Cl)cc(NS(C)(=O)=O)c2F)n1 [Encorafenib] (max concentration tested 1000 nM)",
    "numeric.value": -2.88
  },
  {
    "compound": "N#CCNC(=O)c1ccc(-c2ccnc(Nc3ccc(N4CCOCC4)cc3)n2)cc1 [Momelotinib] (max concentration tested 10000 nM)",
    "numeric.value": -1.5
  },
  {
    "compound": "N#CC1(c2ccc(NC(=O)c3cccnc3NCc3ccncc3)cc2)CCCC1 [Apatinib] (max concentration tested 10000 nM)",
    "numeric.value": -1.56
  }
]

Would you mind listing percent inhibition of viability for each of the following compounds?
1. NC(=O)c1cccc(-c2cccc(OC(=O)NC3CCCCC3)c2)c1 [URB597] (max concentration tested 1000 nM)
2. NS(=O)(=O)OC[C@@H]1C[C@@H](n2ccc3c(N[C@H]4CCc5ccccc54)ncnc32)C[C@@H]1O [Pevonedistat] (max concentration tested 10000 nM)
3. Cc1cc2c(F)c(Oc3ncnn4cc(OC[C@@H](C)O)c(C)c34)ccc2[nH]1 [Brivanib] (max concentration tested 1000 nM)
4. Nc1nc(Nc2ccc3c(c2)CC[C@@H](N2CCCC2)CC3)nn1-c1cc2c(nn1)-c1ccccc1CCC2 [BGB324] (max concentration tested 10000 nM)
5. C[C@]12O[C@H](C[C@]1(O)CO)n1c3ccccc3c3c4c(c5c6ccccc6n2c5c31)CNC4=O [Lestaurtinib] (max concentration tested 1000 nM)
6. CN(N=O)C(=O)N[C@@H](C=O)[C@@H](O)[C@H](O)[C@H](O)CO [Streptozocin] (max concentration tested 10000 nM)

[-3.62, -5, -1.44, -3.36, 0.03, -0.04]

Would you mind listing percent inhibition of viability for each of the following compounds?
1. CC(C)Oc1cc(Nc2nc(N[C@@H](C)c3ccc(F)cn3)ncc2Cl)n[nH]1 [AZ-23] (max concentration tested 1000 nM)
2. CC(C)[C@H](C(=O)Nc1ccc(C(=O)NO)cc1)c1ccccc1 [AR-42] (max concentration tested 10000 nM)
3. NC(=S)N/N=C/c1ncccc1N [Triapine] (max concentration tested 10000 nM)

1: -2.04; 2: 5.85; 3: -2.67
